details: in n-heptane, 284.25 K
Outcome Measure: solubility (mole fraction)
Answer using only a numeral; do not append any unit.

Param item = "CCCCCCCCCCCCCCCCCCC" ; retrieve measured solubility (mole fraction). 0.22

---

conditions: in ethanol, 300.85 K
Outcome Measure: solubility (mole fraction)
Answer using only a numeral; do not append any unit.

Param item = "CCCCCCCCCCCCCCCCCCC" ; retrieve measured solubility (mole fraction). 0.0083

---

settings: in ethanol, 303.85 K
Outcome Measure: solubility (mole fraction)
Answer using only a numeral; do not append any unit.

Param item = "CCCCCCCCCCCCCCCCCCC" ; retrieve measured solubility (mole fraction). 0.0115

---

settings: in ethanol, 289.25 K
Outcome Measure: solubility (mole fraction)
Answer using only a numeral; do not append any unit.

Param item = "CCCCCCCCCCCCCCCCCC" ; retrieve measured solubility (mole fraction). 0.0038

---

conditions: in ethanol, 295.6 K
Outcome Measure: solubility (mole fraction)
Answer using only a numeral; do not append any unit.

Param item = "CCCCCCCCCCCCCCCCCCC" ; retrieve measured solubility (mole fraction). 0.0051

---

conditions: in n-heptane, 279 K
Outcome Measure: solubility (mole fraction)
Answer using only a numeral; do not append any unit.

Param item = "CCCCCCCCCCCCCCCCCC" ; retrieve measured solubility (mole fraction). 0.151

---

conditions: in cyclohexane, 295.65 K
Outcome Measure: solubility (mole fraction)
Answer using only a numeral; do not append any unit.

Param item = "CCCCCCCCCCCCCCCCCCC" ; retrieve measured solubility (mole fraction). 0.553

---

details: in n-heptane, 287.6 K
Outcome Measure: solubility (mole fraction)

Param item = "CCCCCCCCCCCCCCCCCC" ; retrieve measured solubility (mole fraction). 0.314

---

conditions: in ethanol, 291 K
Outcome Measure: solubility (mole fraction)

Param item = "CCCCCCCCCCCCCCCCCC" ; retrieve measured solubility (mole fraction). 0.0047

---

details: in cyclohexane, 301.75 K
Outcome Measure: solubility (mole fraction)
Answer using only a numeral; do not append any unit.

Param item = "CCCCCCCCCCCCCCCCCCC" ; retrieve measured solubility (mole fraction). 0.75

---

conditions: in cyclohexane, 281.45 K
Outcome Measure: solubility (mole fraction)
Answer using only a numeral; do not append any unit.

Param item = "CCCCCCCCCCCCCCCCCC" ; retrieve measured solubility (mole fraction). 0.214

---

details: in n-heptane, 280.95 K
Outcome Measure: solubility (mole fraction)
Answer using only a numeral; do not append any unit.

Param item = "CCCCCCCCCCCCCCCCCCC" ; retrieve measured solubility (mole fraction). 0.164

---

conditions: in ethanol, 297.95 K
Outcome Measure: solubility (mole fraction)
Answer using only a numeral; do not append any unit.

Param item = "CCCCCCCCCCCCCCCCCC" ; retrieve measured solubility (mole fraction). 0.0122

---

conditions: in n-heptane, 279.5 K
Outcome Measure: solubility (mole fraction)
Answer using only a numeral; do not append any unit.

Param item = "CCCCCCCCCCCCCCCCCCC" ; retrieve measured solubility (mole fraction). 0.145

---

conditions: in cyclohexane, 297.05 K
Outcome Measure: solubility (mole fraction)

Param item = "CCCCCCCCCCCCCCCCCC" ; retrieve measured solubility (mole fraction). 0.704

---

details: in cyclohexane, 294.8 K
Outcome Measure: solubility (mole fraction)
Answer using only a numeral; do not append any unit.

Param item = "CCCCCCCCCCCCCCCCCC" ; retrieve measured solubility (mole fraction). 0.576
